Just for reference, patent US20230167132A1 is where these values come from.

Assay: Solubility of Compound 1 in various solvents
Type: physicochemical
Conditions: IPAC, 50 °C, organic solvent or mixture; read-out: Solubility at 50° C.
Protocol: Solubility of >10 mg/mL was only observed in DMSO, NMP and MeOH:DCM 1:3 at 50° C.

{"compound": "O=C(NCc1ncn2ccc(Cl)c(F)c12)c1cn(Cc2cn3cc(C4CC4)ccc3n2)nn1 [Compound 1]", "solubility": "< 10000 µg/mL"}

###

Experiment: Solubility of Compound 1 in various solvents
Assay type: physicochemical
Settings: Acetone, 50 °C, organic solvent or mixture; read-out: Solubility at 50° C.
endpointName: solubility

{"compound": "O=C(NCc1ncn2ccc(Cl)c(F)c12)c1cn(Cc2cn3cc(C4CC4)ccc3n2)nn1 [Compound 1]", "result": "< 10000 µg/mL"}
